target: M1 muscarinic receptor (Homo sapiens, UniProt P11229); construct: expressed in transfected cells; host or cells: CHO (M1-CHO); experiment: Functional mobilization of intracellular calcium (FLIPR), M1-CHO cells; assay type: cell-based; settings: 100% efficacy is the maximum response obtained using Carbachol as a control
Sequence (P11229 whole entry): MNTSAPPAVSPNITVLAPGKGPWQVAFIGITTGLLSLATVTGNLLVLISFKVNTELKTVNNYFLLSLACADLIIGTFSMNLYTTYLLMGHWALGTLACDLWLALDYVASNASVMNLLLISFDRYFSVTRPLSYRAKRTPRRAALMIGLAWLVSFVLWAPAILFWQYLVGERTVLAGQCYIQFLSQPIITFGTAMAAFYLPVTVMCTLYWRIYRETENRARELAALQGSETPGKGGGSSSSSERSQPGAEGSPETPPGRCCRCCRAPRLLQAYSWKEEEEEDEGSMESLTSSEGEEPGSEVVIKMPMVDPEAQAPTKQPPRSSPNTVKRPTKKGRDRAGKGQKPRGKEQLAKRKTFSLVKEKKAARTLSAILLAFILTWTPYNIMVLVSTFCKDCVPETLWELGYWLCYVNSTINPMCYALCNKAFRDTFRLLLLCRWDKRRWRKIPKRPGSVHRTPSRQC

{"compound": "COC(=O)N1Cc2ccccc2C2(CCN(C3CC4CCC(C3)N4C(=O)OC(C)C)CC2)C1 (stereo not shown)", "Emax": "25 to 100%"}
{"compound": "CCOC(=O)N1C2CCC1CC(N1CCC3(CC1)CN(S(=O)(=O)c1sc(NC(C)=O)nc1C)Cc1ccccc13)C2 (stereo not shown)", "Emax": "25 to 100%"}
{"compound": "CCOC(=O)N1CCC(N2CCC3(CC2)CN(C(=O)OC)Cc2ccccc23)CC1", "Emax": "25 to 100%"}
{"compound": "COCCN1CCC2(CC1)CN(C(C)=O)Cc1ccccc12", "Emax": "< 25%"}
